# TEST TARGET: T1, PUF4 RNA-binding domain (Saccharomyces cerevisiae, UniProt P25339 537-888)
# T1 sequence: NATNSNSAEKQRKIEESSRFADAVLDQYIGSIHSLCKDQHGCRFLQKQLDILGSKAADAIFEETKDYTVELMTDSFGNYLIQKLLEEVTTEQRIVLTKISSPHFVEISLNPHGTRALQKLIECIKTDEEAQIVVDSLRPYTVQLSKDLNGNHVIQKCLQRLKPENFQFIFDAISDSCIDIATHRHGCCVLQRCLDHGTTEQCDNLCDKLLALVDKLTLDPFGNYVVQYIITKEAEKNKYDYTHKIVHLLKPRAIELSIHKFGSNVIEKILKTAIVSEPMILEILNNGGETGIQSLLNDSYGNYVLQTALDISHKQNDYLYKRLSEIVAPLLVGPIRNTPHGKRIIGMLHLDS
# PROTOCOL NOTES: Mg; RNA-MaP; 20 mM Na-HEPES pH 7.4, 30 mM KOAc, 0.75 mM MgCl2, 0.1% Tween-20, 5% glycerol, 0.1 mg/mL BSA, 2 mM DTT; 25 C; 0.0125-409.6 nM protein
# MEASUREMENT CONDITIONS: tags: N-His6-TEV cleaved; C-SNAP kept, Cy3B-labelled; label: tethered on chip by stalled RNA polymerase
pKd: −log10 of the molar value.
Label scheme for pKd: lower than 7 is f, 7 and above is t.

[[record]]
binder = "Ie_S2_P4E.1_K4.1_C4.1_H4.1_A4.1_[+6CCCTT]_F4.1_T4.1 (ssRNA) RNA: UUUGAUUAAUAUGAUAUCGUUCUUUCUUGUAUACCCUUUUAUUCUUUCUCGAUAUCAUAUUAAUCUUU"
category_label = "t"


Qu. Quick check: does UCUCUUUGUAUUAUCUCUUUAUCUCUU (ssRNA) [Ie_S1_P5E.1_K5.1_C5.1_H5.1_A5.1_[+7TCTCT]_F5.1_T5.1] have pKd greater than or equal to 7?
Ans. t

Qu. Quick check: does UCUCUUUGUACACAUCUCUU (ssRNA) [Ic_S1_P3E.1_K3.1_C3.1_H3.1_A3.1_[T5C]_F3.1_[T7C]_T3.1] have pKd greater than or equal to 7?
Ans. t

Qu. Quick check: does UCUCUUUGUAUACUCUUAUCUCUU (ssRNA) [Ie_S1_P4E.1_K4.1_C4.1_H4.1_A4.1_[+6CTC]_F4.1_T4.1] have pKd greater than or equal to 7?
Ans. t

Qu. Quick check: does Ic_S2_P4E.1_K4.1_C4.1_H4.1_A4.1_[T5C]_[A6T]_F4.1_[T8G]_[A9C]_T4.1 (ssRNA) RNA: UUUGAUUAAUAUGAUAUCGUUCUUUCUUGUACUUGCUUCUUUCUCGAUAUCAUAUUAAUCUUU have pKd greater than or equal to 7?
Ans. f

Qu. Quick check: does ACAAACAUACACUAUUAUUACAAAC (ssRNA) [Id_ii_S3_P4E.4_K4.3_C4.2_[C-2A]_H4.3_A4.1_F4.1_T4.2_[G10T]] have pKd greater than or equal to 7?
Ans. f

# credit: paper PMC9352680
